molecular target: Adenosine receptor A2b (Homo sapiens); assay: Antagonist activity at human adenosine A2B receptor expressed in CHO cells assessed as NECA-induced adenylate cyclase activity
Sequence (P29275 whole entry): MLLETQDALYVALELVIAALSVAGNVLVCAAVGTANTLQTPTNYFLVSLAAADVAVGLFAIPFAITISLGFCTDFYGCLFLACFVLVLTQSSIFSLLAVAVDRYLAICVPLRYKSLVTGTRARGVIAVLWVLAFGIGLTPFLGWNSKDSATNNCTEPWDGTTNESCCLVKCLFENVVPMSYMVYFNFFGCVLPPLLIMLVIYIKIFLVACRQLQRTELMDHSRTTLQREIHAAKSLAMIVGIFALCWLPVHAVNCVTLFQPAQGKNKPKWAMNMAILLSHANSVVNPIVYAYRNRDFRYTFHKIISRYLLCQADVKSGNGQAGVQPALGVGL
pKi values for the compounds below.
pKi is defined as minus the log10 of a concentration measured in mol/L.

Previously resolved entries follow.
INSERT INTO results (compound_string, target_of_assay, value_measured) VALUES
  ('CCCCCNc1nc2nn(C)cc2c2nc(-c3ccco3)nn12', 'Adenosine receptor A2b (Homo sapiens)', 5.40),
  ('Cn1cc2c(nc(NCC3CCCCC3)n3nc(-c4ccco4)nc23)n1', 'Adenosine receptor A2b (Homo sapiens)', 5.02),
  ('COc1ccc(CCNc2nc3nn(C)cc3c3nc(-c4ccco4)nn23)cc1OC', 'Adenosine receptor A2b (Homo sapiens)', 5.41);

Qu. Value lookup for pKi; key = Cn1cc2c(nc(NCc3ccc(Cl)cc3)n3nc(-c4ccco4)nc23)n1
Ans. 5.58

Qu. Value lookup for pKi; key = CC(C)Nc1nc2nn(C)cc2c2nc(-c3ccco3)nn12
Ans. 5.01

Qu. Value lookup for pKi; key = C[C@H](Nc1nc2nn(C)cc2c2nc(-c3ccco3)nn12)c1ccccc1
Ans. 5.28

Qu. Value lookup for pKi; key = CCNc1nc2nn(C)cc2c2nc(-c3ccco3)nn12
Ans. 5.67

====

Ratio Ki values for the compounds below.
biological target: Adenosine receptors; A1 & A3 (Homo sapiens) (UniProt P30542+P0DMS8); test: Selectivity ratio of Ki for human adenosine A1 receptor expressed in CHO cell membrane to Ki for human adenosine A3 receptor expressed in CHO cell membrane; assay type: cell-based
Sequence (P0DMS8 whole entry, looked up): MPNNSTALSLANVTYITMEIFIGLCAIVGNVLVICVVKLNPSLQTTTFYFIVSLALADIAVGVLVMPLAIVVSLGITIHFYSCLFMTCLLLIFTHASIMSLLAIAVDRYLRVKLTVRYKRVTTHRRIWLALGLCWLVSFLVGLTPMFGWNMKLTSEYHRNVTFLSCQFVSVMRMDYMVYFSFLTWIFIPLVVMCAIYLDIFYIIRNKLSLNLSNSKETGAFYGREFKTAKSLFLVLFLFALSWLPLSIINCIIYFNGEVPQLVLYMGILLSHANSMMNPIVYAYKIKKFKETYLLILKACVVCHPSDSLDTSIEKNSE
Sequence (P30542 whole entry, looked up): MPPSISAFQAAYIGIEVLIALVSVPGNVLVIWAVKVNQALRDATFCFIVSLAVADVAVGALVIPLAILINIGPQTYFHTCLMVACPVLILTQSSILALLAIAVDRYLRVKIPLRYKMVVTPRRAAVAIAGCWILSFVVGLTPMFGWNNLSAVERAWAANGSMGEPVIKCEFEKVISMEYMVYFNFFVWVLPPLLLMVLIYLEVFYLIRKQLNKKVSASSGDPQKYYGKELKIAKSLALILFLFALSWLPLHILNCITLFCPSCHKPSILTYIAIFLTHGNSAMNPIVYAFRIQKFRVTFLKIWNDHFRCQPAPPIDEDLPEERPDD
Give your answer as a number; write no unit.

INSERT INTO results (compound, value_measured) VALUES
  ('Cn1cc2c(nc(NCc3ccc(C(F)(F)F)cc3)n3nc(-c4ccco4)nc23)n1', 82.5),
  ('Cn1cc2c(nc(NCCO)n3nc(-c4ccco4)nc23)n1', 2.1),
  ('CCC(CO)Nc1nc2nn(C)cc2c2nc(-c3ccco3)nn12 (stereo unspecified)', 3.48),
  ('Cn1cc2c(nc(NCC3CCCCC3)n3nc(-c4ccco4)nc23)n1', 17),
  ('CCCCCCC(C)Nc1nc2nn(C)cc2c2nc(-c3ccco3)nn12 (stereo unspecified)', 11.1),
  ('CCN(CCO)c1nc2nn(C)cc2c2nc(-c3ccco3)nn12', 11);

Qu. Value lookup for Ratio Ki; key = CNc1nc2nn(C)cc2c2nc(-c3ccco3)nn12
Ans. 30.4

Qu. Value lookup for Ratio Ki; key = Cn1cc2c(nc(NCc3ccc(-c4ccccc4)cc3)n3nc(-c4ccco4)nc23)n1
Ans. 93.6

Qu. Value lookup for Ratio Ki; key = CC[C@H](C)Nc1nc2nn(C)cc2c2nc(-c3ccco3)nn12
Ans. 11.7

Qu. Value lookup for Ratio Ki; key = Cn1cc2c(nc(NC3CCCCCCC3)n3nc(-c4ccco4)nc23)n1
Ans. 31.2

====

target: Adenosine receptors; A1 & A3 (Homo sapiens) (UniProt P30542+P0DMS8); test: Selectivity ratio of Ki for human adenosine A1 receptor expressed in CHO cell membrane to Ki for human adenosine A3 receptor expressed in CHO cell membrane; format: cell-based
Recorded Metric: Ratio Ki
Give your answer as a number; write no unit.

INSERT INTO results (molecule, recorded_metric, value_measured) VALUES
  ('CCC(C)Nc1nc2nn(C)cc2c2nc(-c3ccco3)nn12 (racemic)', 'Ratio Ki', 25),
  ('Cn1cc2c(nc(N3CCCC3)n3nc(-c4ccco4)nc23)n1', 'Ratio Ki', 9.24),
  ('COCCNc1nc2nn(C)cc2c2nc(-c3ccco3)nn12', 'Ratio Ki', 9.76),
  ('Cn1cc2c(nc(NC(CO)CO)n3nc(-c4ccco4)nc23)n1', 'Ratio Ki', 1.19),
  ('COc1ccc(CCNc2nc3nn(C)cc3c3nc(-c4ccco4)nn23)cc1OC', 'Ratio Ki', 42),
  ('COc1ccc(CNc2nc3nn(C)cc3c3nc(-c4ccco4)nn23)cc1OC', 'Ratio Ki', 129);

Qu. Value lookup for Ratio Ki; key = Cn1cc2c(nc(NCCCO)n3nc(-c4ccco4)nc23)n1
Ans. 0.88

Qu. Value lookup for Ratio Ki; key = Cn1cc2c(nc(NCc3ccc(F)cc3)n3nc(-c4ccco4)nc23)n1
Ans. 167

Qu. Value lookup for Ratio Ki; key = CCCCCC(C)Nc1nc2nn(C)cc2c2nc(-c3ccco3)nn12 (stereo not drawn)
Ans. 28.8

Qu. Value lookup for Ratio Ki; key = Cn1cc2c(nc(NC(c3ccccc3)c3ccccc3)n3nc(-c4ccco4)nc23)n1
Ans. 204

Qu. Value lookup for Ratio Ki; key = Cn1cc2c(nc(NC3CCCC3)n3nc(-c4ccco4)nc23)n1
Ans. 10.4

Qu. Value lookup for Ratio Ki; key = Cn1cc2c(nc(N3CCCCC3)n3nc(-c4ccco4)nc23)n1
Ans. 56.4

Qu. Value lookup for Ratio Ki; key = CCOc1nc2nn(C)cc2c2nc(-c3ccco3)nn12
Ans. 42.6

Qu. Value lookup for Ratio Ki; key = CCCCN(C)c1nc2nn(C)cc2c2nc(-c3ccco3)nn12
Ans. 28.9

Qu. Value lookup for Ratio Ki; key = CCCCCNc1nc2nn(C)cc2c2nc(-c3ccco3)nn12
Ans. 32.9

Qu. Value lookup for Ratio Ki; key = CCN(CC)c1nc2nn(C)cc2c2nc(-c3ccco3)nn12
Ans. 15.1

Qu. Value lookup for Ratio Ki; key = CONc1nc2nn(C)cc2c2nc(-c3ccco3)nn12
Ans. 6.81

Qu. Value lookup for Ratio Ki; key = Cc1ccc(CNc2nc3nn(C)cc3c3nc(-c4ccco4)nn23)cc1
Ans. 503

Qu. Value lookup for Ratio Ki; key = Cn1cc2c(nc(NCCOc3ccccc3)n3nc(-c4ccco4)nc23)n1
Ans. 16.7

Qu. Value lookup for Ratio Ki; key = CN(c1nc2nn(C)cc2c2nc(-c3ccco3)nn12)C1CCCCC1
Ans. 31.2

Qu. Value lookup for Ratio Ki; key = Cn1cc2c(nc(NC(C)(C)CC(C)(C)C)n3nc(-c4ccco4)nc23)n1
Ans. 7.55

Qu. Value lookup for Ratio Ki; key = Cn1cc2c(nc(NC3CCCCCC3)n3nc(-c4ccco4)nc23)n1
Ans. 14.5
